Target: T1, HER2 (epidermal growth factor receptor 2) on N87 cells (UniProt P04626 23-1255, limits assumed)
T1 construct: whole, on cells; N87 cells are used as HER2-positive cells; also called HER2-positive cells (N87); HER2-expressing cells
Assay: saturation binding to N87 cells (cell-bound iron measured), Scatchard plot, apparent Kd
Where no end group is shown, it is not given here. Side-chain parts run from the residue outwards. maleimide = maleimide group (reactive functional group for coupling a ligand)
metric: Kd (nM)
Respond with the bare value in nM.

**Q:** Return reported Kd; argument: MARSGLGGKGSC([maleimide-PEG 300-iron oxide nanoparticle 20 nm]) (not fully specified) [HBP-EO-NP-20: HER2-binding peptide-immobilized 20-nm particle containing an iron oxide particle]
**A:** 78
